system: CHO cells stably expressing pylRS and tRNApyl and an IgG directed against her2/neu containing an amber codon; test: Growth and viability of pylRS/tRNApyl cell line treated with lys azide and dnnAA; assay type: cell-based; conditions: 2 mM dnnAA with 0.5 mM lys-azide, seven days
measure.name: cell viability (%)

molecule="C=CCOC(=O)NCCCCCC(=O)O [Formula VIIB.1]" measure_name="cell viability" measured_value=90
molecule="CC(C)(C)OC(=O)NCCCCCC(=O)O [Formula VIIB.4]" measure_name="cell viability" measured_value=90
